Measurement target: phosphorylated EGFR (pEGFR) (Homo sapiens (Human))
Sequence (P00533 25-1210): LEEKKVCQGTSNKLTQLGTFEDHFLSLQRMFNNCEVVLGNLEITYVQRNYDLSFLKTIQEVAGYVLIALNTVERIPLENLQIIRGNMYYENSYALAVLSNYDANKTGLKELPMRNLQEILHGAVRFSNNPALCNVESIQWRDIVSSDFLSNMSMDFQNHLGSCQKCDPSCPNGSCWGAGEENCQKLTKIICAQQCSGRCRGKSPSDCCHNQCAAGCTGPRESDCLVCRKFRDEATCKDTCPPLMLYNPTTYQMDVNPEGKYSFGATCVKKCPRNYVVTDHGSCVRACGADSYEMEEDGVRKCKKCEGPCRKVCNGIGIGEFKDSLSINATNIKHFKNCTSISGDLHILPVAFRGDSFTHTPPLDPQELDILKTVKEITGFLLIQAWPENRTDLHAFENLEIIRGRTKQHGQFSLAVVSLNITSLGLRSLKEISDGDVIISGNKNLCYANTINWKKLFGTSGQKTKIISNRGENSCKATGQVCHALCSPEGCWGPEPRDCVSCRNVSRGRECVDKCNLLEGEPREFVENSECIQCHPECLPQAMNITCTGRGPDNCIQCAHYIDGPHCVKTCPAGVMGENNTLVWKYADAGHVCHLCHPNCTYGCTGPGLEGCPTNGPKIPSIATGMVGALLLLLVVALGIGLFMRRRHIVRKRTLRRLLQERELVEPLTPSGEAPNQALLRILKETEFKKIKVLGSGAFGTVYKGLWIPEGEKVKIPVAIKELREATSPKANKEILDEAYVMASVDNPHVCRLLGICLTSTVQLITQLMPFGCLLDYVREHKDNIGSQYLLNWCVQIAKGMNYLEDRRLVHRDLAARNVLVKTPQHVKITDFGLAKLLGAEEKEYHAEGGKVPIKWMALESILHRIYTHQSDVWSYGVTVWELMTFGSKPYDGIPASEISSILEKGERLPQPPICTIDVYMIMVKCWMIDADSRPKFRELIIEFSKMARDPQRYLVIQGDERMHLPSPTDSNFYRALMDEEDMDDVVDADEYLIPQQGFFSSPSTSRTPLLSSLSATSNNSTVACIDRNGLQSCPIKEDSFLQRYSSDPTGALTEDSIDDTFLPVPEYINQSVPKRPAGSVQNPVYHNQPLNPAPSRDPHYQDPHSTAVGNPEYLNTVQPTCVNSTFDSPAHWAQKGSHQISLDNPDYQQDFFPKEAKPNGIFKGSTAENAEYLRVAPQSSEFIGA
Assay name: Detection of phosphorylated EGFR (pEGFR) by AlphaLISA in A431 cells
Protocol conditions: A431 cells (10% FBS), 4 hours incubation, EGF 30 ng/mL for 10 minutes
Structures can show the parent of a compound that is named as a salt.
Attribute measured: IC50 (µM)
Answers are plain numbers, in µM.

Worked examples follow.
INSERT INTO assay_data (compound, measurement_target, reading) VALUES
  ('CC#CC(=O)N1CCN2CC1COc1cc3ncnc(Nc4ccc(Oc5ccn6ncnc6c5)c(C)c4)c3nc12 (stereo in doubt)', 'phosphorylated EGFR (pEGFR) (Homo sapiens (Human))', 4.43),
  ('CN(C)C/C=C/C(=O)N1CCN2CC1COc1cc3ncnc(Nc4cc(Cl)c(Oc5ccn6ncnc6c5)cc4F)c3nc12 (stereo in doubt)', 'phosphorylated EGFR (pEGFR) (Homo sapiens (Human))', 1.4),
  ('C=CC(=O)N1CCN2CC1COc1cc3ncnc(Nc4ccc(Oc5ccc(C)nc5)c(C)c4)c3nc12 (stereo in doubt)', 'phosphorylated EGFR (pEGFR) (Homo sapiens (Human))', 0.192),
  ('Cc1cc(Nc2ncnc3cc4c(nc23)N2CCN(C(=O)/C=C/[C@H]3CCCN3C)C(CO4)C2)c(F)cc1Oc1ccn2ncnc2c1 (stereo in doubt)', 'phosphorylated EGFR (pEGFR) (Homo sapiens (Human))', 7.3);

// next entry
Ask: Give the measured IC50 of CNC/C=C/C(=O)N1CCN2CC1COc1cc3ncnc(Nc4ccc(Oc5ccn6ncnc6c5)c(C)c4)c3nc12 (stereo in doubt) [Compound 37, formate] .
Reply: 3.62
